Assign Ratio IC50 to each entry below.
# Method: Selectivity ratio of IC50 for cytotoxicity against human MES-SA cells assessed as cell growth inhibition in presence of P-gp inhibitor Tariquidar to IC50 for cytotoxicity against multidrug resistance human MES-SA/Dx5 cells assessed as cell growth inhibition in presence of P-gp inhibitor Tariquidar
# Assay type: functional
Numbers only.

Below are 2 compounds. Give each one its Ratio IC50.
1. CN1CCN(C(c2ccncc2)c2ccc3cccnc3c2O)CC1 (stereo not drawn)
2. Oc1c(CN2CCc3ccccc3C2)ccc2cccnc12

1: 1.6; 2: 1.5

====

# Test system: MES-SA/Dx5
# Method: Cytotoxicity against multidrug resistance human MES-SA/Dx5 cells assessed as cell growth inhibition incubated for 72 hrs in presence of P-gp inhibitor Tariquidar by PrestoBlue reagent based cell viability assay
# Type: functional
# Condition Context: MES-SA/Dx5, 72 h
Recorded Metric: IC50 (nM)
Answers are plain numbers, in nM.

CCN1CCN(C(c2cc(Cl)c3cccnc3c2O)N2CCCC2)CC1 (configuration not stated) :: 2450

Please find the next compound below.
Sample Oc1c(CN2CCCC2)cc(Br)c2cccnc12 — what was its IC50?
2690

These data points were gathered from ChEMBL document CHEMBL5154931.
